Taken from patent US10829427B2.

We begin with a simple list: items and their reported IC50/IC50 (β-lapachone/Compoud).
Test system: A549 cells
EXPERIMENT SUMMARY: Cell viability in A549 cells (7-day DNA assay)
Type: cell-based, human
PARTICULARS: relative to β-lapachone

SMILES CODE | IC50/IC50 (β-lapachone/Compoud)
CC(C)OC1=CC(=O)C(=O)c2cc(Cl)ccc21 | 1~2
CC(C)OC1=CC(=O)C(=O)c2cc(Cl)c(Cl)cc21 | 0.3~1
CC(C)OC1=CC(=O)C(=O)c2c(NS(C)(=O)=O)cccc21 | >3
CC(C)OC1=CC(=O)C(=O)c2ccc(Cl)cc21 | 0.3~1
COCCOCCOC1=CC(=O)C(=O)c2c(NC(C)=O)cccc21 | 0.3~1
COCCOCCOCCOCCOC1=CC(=O)C(=O)c2c(NC(C)=O)cccc21 | >3
CC(C)OC1=CC(=O)C(=O)c2c(O)cccc21 | 1~2

---

Tested on: Mia PaCa-2 cells
EXPERIMENT SUMMARY: ATP assay (ATP depletion / cell viability) in Mia PaCa-2 cells
Type: cell-based, human
PARTICULARS: Relative activity compare with β-lapachone in ATP depletion of Mia PaCa-2 cells
REPORTED ENDPOINT: IC50/IC50 (β-lapachone/Compoud)

COMPOUND | ENDPOINT RESULT
CCCCOC1=CC(=O)C(=O)c2c(NC(C)=O)cccc21 [Compound 50] | 1~2
CCCCCCOC1=CC(=O)C(=O)c2c(NC(C)=O)cccc21 [Compound 28] | 1~2
CC(C)OC1=CC(=O)C(=O)c2c(O)cccc21 [Compound 38] | 1~2
CC(C)OC1=CC(=O)C(=O)c2cc(F)ccc21 [Compound 3] | <0.3
CC(=O)Nc1cccc2c1C(=O)C(=O)C=C2OC(C)C [Compound 24] | >3

---

Tested on: Mia PaCa-2 cells
EXPERIMENT SUMMARY: ATP assay (ATP depletion / cell viability) in Mia PaCa-2 cells
Assay type: cell-based, human
PARTICULARS: Relative activity compare with β-lapachone in ATP depletion of Mia PaCa-2 cells
REPORTED ENDPOINT: IC50/IC50 (β-lapachone/Compoud)

SMILES CODE | ENDPOINT RESULT
CC(C)OC1=CC(=O)C(=O)c2cc(Cl)c(Cl)cc21 | 1~2
O=C1C=C(OC2CCCCC2)c2ccc(Cl)cc2C1=O | <0.3
CC(C)OC1=CC(=O)C(=O)c2c(NC(=O)C(F)(F)F)cccc21 | <0.3
CC(C)OC1=CC(=O)C(=O)c2cccc(Br)c21 | <0.3
